Hello, the source for this data is patent US20130303532A1, in case you need it.

system under test: human kinase Mps-1 (Homo sapiens, UniProt P33981)
Construct: N-terminally GST-tagged human full length recombinant Mps-1 kinase; GST (N); purchased Invitrogen, Karslruhe, Germany PV4071
Sequence (P33981 1-857): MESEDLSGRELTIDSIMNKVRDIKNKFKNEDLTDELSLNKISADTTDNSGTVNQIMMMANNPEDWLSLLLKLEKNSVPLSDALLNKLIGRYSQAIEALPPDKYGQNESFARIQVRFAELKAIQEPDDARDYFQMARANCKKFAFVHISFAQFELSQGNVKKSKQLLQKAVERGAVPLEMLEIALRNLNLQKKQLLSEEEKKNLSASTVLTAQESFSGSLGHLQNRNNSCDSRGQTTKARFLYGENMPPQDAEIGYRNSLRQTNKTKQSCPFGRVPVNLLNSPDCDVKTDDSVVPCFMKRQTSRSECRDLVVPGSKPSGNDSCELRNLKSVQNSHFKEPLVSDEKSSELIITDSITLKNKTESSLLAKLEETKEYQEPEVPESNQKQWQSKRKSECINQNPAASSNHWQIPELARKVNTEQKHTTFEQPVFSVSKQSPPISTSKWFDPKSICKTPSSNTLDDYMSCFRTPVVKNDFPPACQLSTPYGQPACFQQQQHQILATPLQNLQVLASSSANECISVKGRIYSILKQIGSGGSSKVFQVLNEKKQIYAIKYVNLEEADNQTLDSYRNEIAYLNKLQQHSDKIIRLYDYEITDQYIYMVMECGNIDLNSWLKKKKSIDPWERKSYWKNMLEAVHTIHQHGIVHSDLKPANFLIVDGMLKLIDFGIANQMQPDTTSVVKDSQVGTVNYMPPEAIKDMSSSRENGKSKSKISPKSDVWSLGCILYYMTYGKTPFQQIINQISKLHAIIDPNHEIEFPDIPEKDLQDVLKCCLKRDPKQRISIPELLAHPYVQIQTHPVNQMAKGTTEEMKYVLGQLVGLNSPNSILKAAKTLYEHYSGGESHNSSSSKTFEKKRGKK
experimental details: Mps-1 kinase assay (TR-FRET)
Type: biochemical
assay setup: Mps1 IC50 [nM], N-terminally GST-tagged human full length recombinant Mps-1; 10 μM ATP; 1 μM biotinylated peptide substrate; 60 min at 22° C.
parameter: IC50 (nM)
Numbers only, in nM.

INSERT INTO results (item_smiles, system_under_test, unit, value_reported) VALUES
  ('Cn1nccc1CNc1nccn2c(-c3ccc(C(=O)NC4CC4)c(Cl)c3)cnc12', 'human kinase Mps-1 (Homo sapiens, UniProt P33981)', 'nM', 269),
  ('Cc1cc(-c2cnc3c(NCc4cnn(C)c4)nccn23)ccc1C(=O)NC1CC1', 'human kinase Mps-1 (Homo sapiens, UniProt P33981)', 'nM', 93.4),
  ('Cc1cc(-c2cnc3c(NCc4ccccc4Cl)nccn23)ccc1C(=O)NC1CC1', 'human kinase Mps-1 (Homo sapiens, UniProt P33981)', 'nM', 18.8);

Reported IC50, molecule `COCCCNc1nccn2c(-c3ccc(C(=O)NC4CC4)cc3)cnc12` : ____
95.8
